Test system: elastic fibers of the dermis
Experiment: morphometric quantification of elastic fibers in skin explants
Format: cell-based, Human
Settings: D5; applied twice per day, 5 μL per explant
In this section we review reported Morphometric quantification of elastic fibers in the middle dermis (%) values for a set of sequences.
The reply should contain only the number, in %.

Seq string | Units symbol | Reported measurement
HGEWRPSYEKQEDEE [0723.03] | % | 9
RPYYSNAPQEIF [0723.04] | % | 9

Attention now shifts to the item below.
Ask: Name the reported Morphometric quantification of elastic fibers in the middle dermis (%) value associated with the sequence HPVAITASSNLNLLGFG [0723.02]
Reply: 9.08

====

Test system: elastic fibers of the dermis
Assay: morphometric quantification of elastic fibers in skin explants
Type: cell-based, Human
Settings: D1; applied twice per day, 5 μL per explant
Quantity kind: Morphometric quantification of elastic fibers in the middle dermis (%)
The reply should contain only the number, in %.

Seq string | Reported measurement
QQYGIAASPFLQSAA [0723.07] | 6.46
HGEWRPSYEKQEDEE [0723.03] | 4.9

Attention now shifts to the item below.
Ask: Name the reported Morphometric quantification of elastic fibers in the middle dermis (%) value associated with the sequence DEHQKIHQFR [0723.08]
Reply: 3.52
